Tested on: K562 human chronicity marrow leukemic cells
assayExplanation: Tumor cell inhibition ratio, CCK-8 kit, K562
testContext: K562, read-out: Antiproliferative effect (inhibition ratio) K562
Reported inhibition at 100 µM by item:
Numeric only. Scale: %

Given the entry COCCOc1cc2c(cc1OCCOC)C1=Nc3cccc(C(F)(F)F)c3CN1C=N2 [Compound V-9] , what inhibition at 100 µM was observed with K562 human chronicity marrow leukemic cells?
79.9

Given the entry CS(=O)(=O)CCNCc1ccc(-c2ccc3c(c2)C2=Nc4ccc(OCc5cccc(F)c5)c(Cl)c4CN2C=N3)o1 [Compound V-33] , what inhibition at 100 µM was observed with K562 human chronicity marrow leukemic cells?
86

Given the entry COc1cc2c(cc1OCCCN1CCCC1)C1=Nc3cccc(Cl)c3CN1C=N2 [Compound V-24] , what inhibition at 100 µM was observed with K562 human chronicity marrow leukemic cells?
93.8

Given the entry COCCOc1cc2c(cc1OCCOC)C1=Nc3cc(CO)cc(N)c3CN1C=N2 [Compound V-21] , what inhibition at 100 µM was observed with K562 human chronicity marrow leukemic cells?
81.6

Given the entry COCCOc1cc2c(cc1OCCOC)C1=Nc3cc(Cl)ccc3CN1C=N2 [Compound V-15] , what inhibition at 100 µM was observed with K562 human chronicity marrow leukemic cells?
91.5
